Origin of values: ChEMBL document CHEMBL5537140

# PROCEDURE TEXT: Metabolic stability in mouse liver microsomes assessed as parent compound remaining at 1 uM incubated for 30 mins in presence of NADPH by LC-MS/MS analysis
# Format: ADME, Microsome
# CONDITION INFO: read-out: Stability
QUANTITY NAME: remaining at 0.5 h, 1 µM (%)
// note: answer is a bare numeric in %

# compound CCOc1cc(CN2CCC(F)(CNc3ccc(C(=O)O)cc3)CC2)cc(OCC)c1-c1ccc(F)cc1 ; its remaining at 0.5 h, 1 µM = 81.4

Input CCOc1cc(CN2CCC(F)(COc3ccc(C(=O)O)cc3)CC2)cc(OCC)c1-c1ccc(F)cc1 . Output remaining at 0.5 h, 1 µM: 61

Briefly, remaining at 0.5 h, 1 µM measured for CCOc1cc(CN2CCC(F)(CNc3ccc(C(=O)O)c(OC)c3)CC2)cc(OCC)c1-c1ccc(F)cc1 : 59.8
